src = the supplement of paper PMC10724198

# System: Saccharomyces cerevisiae
# PROCEDURE DETAILS: protein stability index of tFT-peptide fusion (C-terminal peptide) (PSI (0-1 scale)); higher = more stable (slower turnover)
# MEASUREMENT SETUP: genetic background: das1 deletion; temperature: 30 C
Threshold check on protein stability index: at or above 0.7 gives yes, strictly below gives no.

Previously resolved entries follow.
ICAWLLFFETIH [BST1 C-terminal 12 aa]	no
RHICVGAKLCKF [MCH4 C-terminal 12 aa]	yes
FSTIDGSIKDIK [FDO1 C-terminal 12 aa]	no
CHLLFGTHKKTL [YBL071C-B C-terminal 12 aa]	yes

Test whether the sequence RKPPGFFDEGFM [FLC3 C-terminal 12 aa] records protein stability index of 0.7 or higher.
yes

Could you please find out whether NFVMTVFWKIPV [PER33 C-terminal 12 aa] has protein stability index that meets 0.7 or exceeds it?
no

Please tell me: is the sequence PIAAIKEILDQV [DSF1 C-terminal 12 aa] at or over 0.7 in terms of protein stability index?
no

Evaluate SQSCPFFPLMDD [YDR246W-A C-terminal 12 aa] : protein stability index at minimum 0.7?
yes

Decide: is the reported value of protein stability index for GPYWKRVLDFWC [GNP1 C-terminal 12 aa] equal to or greater than 0.7?
yes
